- ASSAY OVERVIEW: qHTS profiling of the MIPE4 collection as inhibitors of Plasmodium falciparum (3D7) proliferation (AID 743344);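 also: scaled between DMSO vehicle wells and 0.29 µM artemisinin as full inhibition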
- MEASUREMENT CONDITIONS: P. falciparum 3D7 in erythrocytes, SYBR Green DNA fluorescence, 72 h; at 28.5 µM unless noted
ENDPOINT: parasite growth, % of DMSO control (%)
Express the result in % but write the number alone.

# COMPOUND, parasite growth, % of DMSO control (%)
measured = [
    ("CCCc1nc2c(C)cc(-c3nc4ccccc4n3C)cc2n1Cc1ccc(-c2ccccc2C(=O)O)cc1", 6.42),
    ("CN(C)c1ccc(Nc2nc(N)n(C(=O)c3c(F)cccc3F)n2)cc1", 10.5),
    ("Nc1cccc(S(=O)(=O)N2CCCN(S(=O)(=O)c3ccc4c(c3)OCCO4)CC2)c1", 257),
]

Give the measured parasite growth, % of DMSO control of `CCc1cc(Nc2nccc(-c3c(-c4ccc(OC)c(C(=O)Nc5c(F)cccc5F)c4)nc4ccccn34)n2)c(OC)cc1N1CCC(N2CCN(S(C)(=O)=O)CC2)CC1` .
4.93

What do we get for `N[C@@H]1CONC1=O` ?
398

Further, for `Nc1nc2c(ncn2COCCO)c(=O)[nH]1` ?
96.7

Another: `NC(=O)c1ccc(I)c([N+](=O)[O-])c1`
71.2

Could you do the same for `OCCn1cc(-c2cnc3nnn(Cc4ccc5ncccc5c4)c3n2)cn1` , please?
56.6

Moving on to `Cn1cc(-c2ccc3nnc(C(F)(F)c4ccc5ncccc5c4)n3n2)cn1`
24.5

Lookup `CCc1cncnc1N1CCN(Cc2nc3ccc(C(F)(F)F)cc3[nH]2)CC1`
19.6
